System: P388 leukemia ip, CD2F1 mice, survival T/C
TEST_DETAILS: NCI In Vivo Anticancer Drug Screen. Data for tumor model P388 Leukemia (intraperitoneal) in CD2F1 (CDF1) mice
COND: endpoint: median survival time; dose: 200.0 mg/kg/injection; schedule: Q01DX005 (ip); vehicle: saline with Tween-80; higher = longer survival
Inconclusive results and toxic doses are left out.
MEASUREMENT_NAME: T/C

Using the record for CCOC(=O)c1c(-c2ccccc2)csc1NC(=O)CN1CCOCC1 , report its T/C. 88 % of control

Please answer likewise for O=C1CSC(c2cccc(Cl)c2)N1CCN1C(=O)CSC1c1cccc(Cl)c1 (stereo not drawn) 86 % of control

Same question for NC(CCSSCCC(N)P(=O)(O)O)P(=O)(O)O (stereo not drawn) please. 99 % of control

###

Test system: P388 leukemia ip, CD2F1 mice, survival T/C
TEST_DETAILS: NCI In Vivo Anticancer Drug Screen. Data for tumor model P388 Leukemia (intraperitoneal) in CD2F1 (CDF1) mice
COND: endpoint: median survival time; dose: 100.0 mg/kg/injection; schedule: Q01DX001 (ip); vehicle: Klucel (hydroxypropylcellulose) (HPC); higher = longer survival
Procedure: The antitumor activity of compounds was measured in mice bearing transplantable tumors. Survival or tumor size were measured and the results are expressed as the measurement made in the treated group (T) divided by the measurement made in the vehicle treated control group (C). The tumor model used in this assay is P388 Leukemia (intraperitoneal) in CD2F1 (CDF1) mice
Toxic doses and inconclusive results are not listed.
Record form. Attribute: T/C. Fill in for each entry.

What value of measured T/C is listed for Nn1c(-c2nn[nH]n2)nnc1-c1nn[nH]n1 (tested in a mixture with another compound) ? 107 % of control

Repeat for the following compound: COCOc1cc(OCc2ccccc2)ccc1C(=O)/C=C/c1cc2c(cc1OCc1ccccc1)OCO2 105 % of control

Thanks! And O=C1CC(c2ccc(Cl)cc2)C(c2ccc(Cl)cc2)C1=O (stereo unspecified) ? 99 % of control

// query: CC(COS(C)(=O)=O)OS(C)(=O)=O (stereo unspecified) 93 % of control

Now the same for O=C(c1ccccc1)C(c1ccccc1)n1nc2c(c1-c1ccccc1)CCC2 (stereo unspecified) 100 % of control

Same again, this time with Nc1nc2ccccc2n1C(=O)C(F)(F)F 98 % of control

###

Can you tell me T/C for the items I'm about to list?
Test system: P388 leukemia ip, CD2F1 mice, survival T/C
TEST_DETAILS: NCI In Vivo Anticancer Drug Screen. Data for tumor model P388 Leukemia (intraperitoneal) in CD2F1 (CDF1) mice
COND: endpoint: median survival time; dose: 200.0 mg/kg/injection; schedule: Q04DX002 (ip); vehicle: Klucel (hydroxypropylcellulose) (HPC); higher = longer survival
Toxic doses and inconclusive results are not listed.

Under P388 leukemia ip, CD2F1 mice, survival T/C: T/C value of O=C1N/C(=N/O)CC(NO)N1 (stereo not drawn) ? 100 % of control

// query: Cc1ccc(-c2csc3nc(C)c(CN4CCOCC4)c(=O)n23)cc1 102 % of control

For CC(=O)OC1CC2(OC(C)=O)CC(OC2=O)C1OC(C)=O (stereo not drawn) then? 100 % of control

###

Could you please report measured T/C for the items listed next?
System: P388 leukemia ip, CD2F1 mice, survival T/C
TEST_DETAILS: NCI In Vivo Anticancer Drug Screen. Data for tumor model P388 Leukemia (intraperitoneal) in CD2F1 (CDF1) mice
COND: endpoint: median survival time; dose: 120.0 mg/kg/injection; schedule: Q01DX005 (ip); vehicle: Klucel (hydroxypropylcellulose) (HPC); higher = longer survival
Toxic doses and inconclusive results are not listed.

Look up T/C with P388 leukemia ip, CD2F1 mice, survival T/C for this compound: CN(C)C1=NC(N(C)C)=C2C=C(C(C)(C)C)C=C12 101 % of control

Consider next the compound COC(=O)C1=C(C(=O)OC)SC(=C2C3=C(SC(C(=O)OC)=C(C(=O)OC)S3)c3ccccc32)S1 in the same way. 89 % of control

Again, but for CCCCCC(C(=O)OCC)/C(C)=N\NC(N)=S (centres undefined) 98 % of control

Another: COc1cccc(/C=N/N(C)c2c([N+](=O)[O-])cc(C(F)(F)F)cc2[N+](=O)[O-])c1O 92 % of control
